# Tested on: L1210 leukemia ip in BDF1 mice, survival T/C
# Protocol Text: NCI In Vivo Anticancer Drug Screen. Data for tumor model L1210 Leukemia (intraperitoneal) in B6D2F1 (BDF1) mice
# Applied Conditions: endpoint: mean survival time; dose: 75.0 mg/kg/injection; schedule: Q01DX001 (ip); vehicle: other; higher = longer survival
Toxic doses and inconclusive results are not listed.
Test Readout: T/C

Worked cases, answers included:
COc1cc2c(cc1OC)C13CCN4C=C5CCOC6CC(=O)N2C1C6C5CC43 (configuration not stated) ... 96 % of control
CCC(C)NCCOC(=O)C(c1ccccc1)c1ccccc1 (configuration not stated) ... 93 % of control
CCOP(=O)(OCC)C1=C(P(=O)(OCC)OCC)C(F)(F)C1(F)F ... 102 % of control
CCOC(=O)C(CC(C)C)NC(=O)c1ccc(C)c2c1Nc1c(c(C)c3oc(=O)c(C)nc3c1C(=O)NC(CC(C)C)C(=O)OCC)O2 (configuration not stated) ... 91 % of control
O=C1C=C(c2ccccc2)C(c2ccccc2)C1O (configuration not stated) ... 102 % of control

Ask | Entry c1ccc2c(c1)C[n+]1ccccc1-2 has what T/C?
Reply | 102 % of control

Ask | // query: CCOC1=C(NC(C)=O)C(=O)c2ccccc2C1=O
Reply | 100 % of control

====

# System: L1210 leukemia ip in BDF1 mice, survival T/C
# Protocol Text: NCI In Vivo Anticancer Drug Screen. Data for tumor model L1210 Leukemia (intraperitoneal) in B6D2F1 (BDF1) mice
# Applied Conditions: endpoint: mean survival time; dose: 200.0 mg/kg/injection; schedule: Q01DX001 (ip); vehicle: saline with Tween-80; higher = longer survival
Inconclusive results and toxic doses are left out.
Test Readout: T/C

Worked cases, answers included:
COC(=O)c1ccc(N=Nc2ncc(CCNC(=O)C(F)(F)F)[nH]2)cc1 ... 96 % of control
O=C(NC(=S)Nc1ccc(O)cc1)c1cccc([N+](=O)[O-])c1 ... 91 % of control
C=C1CC23CC[C@H]4[C@@](C)(CCC[C@@]4(C)C(=O)OC4OC(CO)C(O)C(O)C4O)[C@@H]2CC[C@@]1(OC1OC(CO)C(O)C(O)C1OC1OC(CO)C(O)C(O)C1O)C3 (some centres undefined) ... 93 % of control
O=S(=O)(/N=C1\C=CC=C\C1=N/S(=O)(=O)c1ccccc1)c1ccccc1 ... 100 % of control
CC(CCC(=O)O)C1CCC2C3CCC4CC(OC=O)CCC4(C)C3CC(=O)C12C (centres undefined) ... 95 % of control
CCOC(=O)CC1C(=O)CCCC1=O ... 104 % of control
C/C=C(\C)c1cc(=O)c2c(C)cc3c(c2o1)C(=O)c1c(O)c(C2CC(C)(N(C)C)C(O)C(C)O2)cc(C2CC(N(C)C)C(O)C(C)O2)c1C3=O (centres undefined) ... 114 % of control
C=CCC(CCCCCCCCCCC)C(=O)O (centres undefined) ... 97 % of control

Note: attention shifts to another entry.
Ask | Reported T/C for L1210 leukemia ip in BDF1 mice, survival T/C, given O=C(Nc1ccc(S(=O)(=O)F)cc1)OCc1ccc([N+](=O)[O-])cc1 ?
Reply | 95 % of control

====

T/C overview
# Tested on: L1210 leukemia ip in BDF1 mice, survival T/C
# Protocol Text: NCI In Vivo Anticancer Drug Screen. Data for tumor model L1210 Leukemia (intraperitoneal) in B6D2F1 (BDF1) mice
# Applied Conditions: endpoint: mean survival time; dose: 200.0 mg/kg/injection; schedule: Q04DX002 (ip); vehicle: saline with Tween-80; higher = longer survival
Toxic doses and inconclusive results are not listed.

Worked cases, answers included:
COc1ccc(CC2(C#N)c3ccccc3C=CN2C(=O)c2ccccc2)c([N+](=O)[O-])c1OC (stereo not drawn) ... 97 % of control
O=S(=O)(CCCCl)Nc1ccccn1 ... 93 % of control
CCOC(=O)c1n[nH]c2ccccc12 ... 106 % of control
CCCCCCCCCCCCCCCCCC(=O)Oc1cccc2cccnc12 ... 93 % of control
O=S(=O)(F)c1cc(Cl)ccc1CBr ... 104 % of control

Ask | Entry CC(=O)c1cc2cc(Cl)cc(Cl)c2oc1=O has what T/C?
Reply | 100 % of control

Ask | // query: CCNP(=S)(SCC)SCC
Reply | 89 % of control

Ask | // query: O=C1CC23CCC12CCCC3=O (stereo not drawn)
Reply | 93 % of control

====

T/C overview
# Test system: L1210 leukemia ip in BDF1 mice, survival T/C
# Protocol Text: NCI In Vivo Anticancer Drug Screen. Data for tumor model L1210 Leukemia (intraperitoneal) in B6D2F1 (BDF1) mice
# Applied Conditions: endpoint: mean survival time; dose: 50.0 mg/kg/injection; schedule: Q01DX009 (ip); vehicle: Klucel (hydroxypropylcellulose) (HPC); higher = longer survival
Toxic doses and inconclusive results are not listed. Square brackets hold non-standard residues; d marks the D form. Peptide text beside a SMILES is read from it. * marks the point of attachment. ξ: configuration not given here. Cbz = O=C(OCc1ccccc1)*; ξD = NC(CC(=O)O)C(=O)O

Worked cases, answers included:
O=C(Nc1ccc(Br)cc1)Oc1ccc(-c2ccccc2)cc1 ... 95 % of control
O=C(O)CC(NC(=O)CNC(=O)OCc1ccccc1)C(=O)O (stereo not drawn) (Cbz-Gly-[ξD]-OH) ... 93 % of control
Cc1cccc(N2C(=O)C3C(C2=O)C2(Cl)C(Cl)=C(Cl)C3(Cl)C2(Cl)Cl)c1C (stereo unspecified) ... 103 % of control

Note: attention shifts to another entry.
Ask | Entry NNC(=O)c1c[nH]c2ccccc2c1=O has what T/C?
Reply | 94 % of control

====

# Test system: L1210 leukemia ip in BDF1 mice, survival T/C
# Protocol Text: NCI In Vivo Anticancer Drug Screen. Data for tumor model L1210 Leukemia (intraperitoneal) in B6D2F1 (BDF1) mice
# Applied Conditions: endpoint: mean survival time; dose: 200.0 mg/kg/injection; schedule: Q01DX009 (ip); vehicle: Klucel (hydroxypropylcellulose) (HPC); higher = longer survival
Toxic doses and inconclusive results are not listed.
Test Readout: T/C

O=C1OCCN1C(=O)c1ccc([N+](=O)[O-])cc1 ... 94 % of control
c1ccc(C2OC2(c2ccccc2)c2ccccc2)cc1 (configuration not stated) ... 102 % of control
CN(C(=O)c1ccc([N+](=O)[O-])cc1)c1ccccc1 ... 96 % of control

Ask | Reported T/C for L1210 leukemia ip in BDF1 mice, survival T/C, given COC(=O)C/C(=C\c1ccc(OC)c(OC)c1)C(=O)OC ?
Reply | 94 % of control

Ask | // query: CSc1ccccc1C=O
Reply | 105 % of control

Ask | // query: Cc1c([N+](=O)[O-])oc2ccc(Cl)cc12
Reply | 91 % of control

Ask | // query: Cc1cc(OC(=O)Nc2ccc(Cl)c(Cl)c2)ccc1Cl
Reply | 98 % of control

====

# Tested on: L1210 leukemia ip in BDF1 mice, survival T/C
# Protocol Text: NCI In Vivo Anticancer Drug Screen. Data for tumor model L1210 Leukemia (intraperitoneal) in B6D2F1 (BDF1) mice
# Applied Conditions: endpoint: mean survival time; dose: 400.0 mg/kg/injection; schedule: Q01DX001 (ip); vehicle: saline; higher = longer survival
# Protocol: The antitumor activity of compounds was measured in mice bearing transplantable tumors. Survival or tumor size were measured and the results are expressed as the measurement made in the treated group (T) divided by the measurement made in the vehicle treated control group (C). The tumor model used in this assay is L1210 Leukemia (intraperitoneal) in B6D2F1 (BDF1) mice
Toxic doses and inconclusive results are not listed.
T/C overview

Worked cases, answers included:
CCOC(=O)C1C(CCCCO)CC(=O)CC1(C)C(N)=O (stereo not drawn) ... 95 % of control
Oc1ccccc1C=Nc1ccc(Cc2ccc(N=Cc3ccccc3O)cc2)cc1 ... 90 % of control
CCOc1ncc([N+](=O)[O-])c(OCC)n1 ... 100 % of control
CCCCCC1(C)OCC(C)(C)N1O (stereo not drawn) ... 111 % of control

Note: attention shifts to another entry.
Ask | Entry COc1ccc(C(=O)C(C)CN2CCOCC2)cc1 (stereo not drawn) has what T/C?
Reply | 102 % of control

====

# System: L1210 leukemia ip in BDF1 mice, survival T/C
# Protocol Text: NCI In Vivo Anticancer Drug Screen. Data for tumor model L1210 Leukemia (intraperitoneal) in B6D2F1 (BDF1) mice
# Applied Conditions: endpoint: mean survival time; dose: 400.0 mg/kg/injection; schedule: Q04DX002 (ip); vehicle: saline; higher = longer survival
Toxic doses and inconclusive results are not listed.
Test Readout: T/C

Worked cases, answers included:
CC1CCCCN1 (stereo unspecified) ... 112 % of control
COC(=O)C1CCCN1C(=O)C(C)=O (stereo unspecified) ... 113 % of control
CC(C)OP(=O)(CCCCCCCCCCP(=O)(OC(C)C)OC(C)C)OC(C)C ... 98 % of control
CCCC(C(N)=O)N(CCO)CCO (stereo unspecified) ... 90 % of control
C/C=C/C=C/COC(=O)CCCCCCC ... 100 % of control

Ask | Entry C[S+](C)CCS(=O)(=O)[O-] has what T/C?
Reply | 96 % of control
